- Tested on: LHRH binding sites on human ovarian cancer cells (EFO-27);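 also: Cell-associated radioactivity on confluent EFO-27 monolayers in 96-well plates, measured by microplate scintillation counting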
Non-standard residues stand in square brackets, D forms with d. Residues, ends and D or L forms follow the SMILES beside them. *: point of attachment. DOTA = O=C(O)CN1CCN(CC(=O)O)CCN(CC(=O)*)CCN(CC(=O)O)CC1; Bpa = N[C@@H](Cc1ccc(C(=O)c2ccccc2)cc1)C(=O)O; Ala(4-thiazolyl) = N[C@@H](Cc1cscn1)C(=O)O; 3Pal = N[C@@H](Cc1cccnc1)C(=O)O; azaGly = NNC(=O)O; Sar = CNCC(=O)O
outcome measure: log10(EC50) (log10 of the value in nM)
Heads up: the numbers are on a log10 scale; they represent EC50 in nM.

| compound | numeric value |
| --- | --- |
| N=C(N)NCCC[C@H](NC(=O)[C@@H](Cc1ccc2ccccc2c1)NC(=O)CN1CCN(CC(=O)O)CCN(CC(=O)O)CCN(CC(=O)O)CC1)C(=O)N[C@@H](Cc1c[nH]c2ccccc12)C(=O)N[C@@H](CO)C(=O)N[C@@H](CCCNC(N)=O)C(=O)N[C@H](CCCNC(=N)N)C(=O)N[C@@H](Cc1c[nH]c2ccccc12)C(=O)N[C@@H](Cc1ccc(C(=O)c2ccccc2)cc1)C(=O)N1CCC[C@H]1C(=O)NNC(N)=O | 2.97 |

Below are 5 compounds. Give each one its log10(EC50).
1. CN(CC(=O)N[C@@H](Cc1c[nH]cn1)C(=O)N[C@@H](Cc1c[nH]c2ccccc12)C(=O)N[C@@H](CO)C(=O)N[C@@H](Cc1c[nH]cn1)C(=O)N[C@H](CCCNC(=N)N)C(=O)N[C@@H](Cc1c[nH]c2ccccc12)C(=O)N[C@@H](Cc1c(F)c(F)c(F)c(F)c1F)C(=O)N1CCC[C@H]1C(=O)NNC(N)=O)C(=O)CN1CCN(CC(=O)O)CCN(CC(=O)O)CCN(CC(=O)O)CC1
2. N=C(N)NCCC[C@H](NC(=O)[C@@H](Cc1ccc2ccccc2c1)NC(=O)CN1CCN(CC(=O)O)CCN(CC(=O)O)CCN(CC(=O)O)CC1)C(=O)N[C@@H](Cc1c[nH]c2ccccc12)C(=O)N[C@@H](CO)C(=O)N[C@@H](Cc1c[nH]cn1)C(=O)N[C@H](CCCNC(=N)N)C(=O)N[C@@H](Cc1c[nH]c2ccccc12)C(=O)N[C@@H](Cc1ccc(C(=O)c2ccccc2)cc1)C(=O)N1CCC[C@H]1C(=O)NCCOCCN [compound 2968]
3. CN(CC(=O)N[C@@H](Cc1cscn1)C(=O)N[C@@H](Cc1c[nH]c2ccccc12)C(=O)N[C@@H](CO)C(=O)N[C@@H](Cc1cscn1)C(=O)N[C@H](CCCNC(=N)N)C(=O)N[C@@H](Cc1c[nH]c2ccccc12)C(=O)N[C@@H](Cc1ccc(C(=O)c2ccccc2)cc1)C(=O)N1CCC[C@H]1C(=O)NNC(N)=O)C(=O)CN1CCN(CC(=O)O)CCN(CC(=O)O)CCN(CC(=O)O)CC1 [BRU-2762] ({DOTA}-[Sar][Ala(4-thiazolyl)]WS[Ala(4-thiazolyl)][dR]W[Bpa]P[azaGly]-NH2; C-terminus assumed)
4. CN(CC(=O)N[C@@H](Cc1cccnc1)C(=O)N[C@@H](Cc1c[nH]c2ccccc12)C(=O)N[C@@H](CO)C(=O)N[C@@H](Cc1c[nH]cn1)C(=O)N[C@H](CCCNC(=N)N)C(=O)N[C@@H](Cc1c[nH]c2ccccc12)C(=O)N[C@@H](Cc1ccc(C(=O)c2ccccc2)cc1)C(=O)N1CCC[C@H]1C(=O)NNC(N)=O)C(=O)CN1CCN(CC(=O)O)CCN(CC(=O)O)CCN(CC(=O)O)CC1 [BRU-2818] ({DOTA}-[Sar][3Pal]WSH[dR]W[Bpa]P[azaGly]-NH2)
5. CN(CC(N)=O)NC(=O)[C@@H]1CCCN1C(=O)[C@H](Cc1ccc(C(=O)c2ccccc2)cc1)NC(=O)[C@H](Cc1c[nH]c2ccccc12)NC(=O)[C@@H](CCCNC(=N)N)NC(=O)[C@H](Cc1c[nH]cn1)NC(=O)[C@H](CO)NC(=O)[C@H](Cc1c[nH]c2ccccc12)NC(=O)[C@H](CCCNC(=N)N)NC(=O)[C@@H](Cc1ccc2ccccc2c1)NC(=O)CN1CCN(CC(=O)O)CCN(CC(=O)O)CCN(CC(=O)O)CC1

3.66
2.38
4.18
3.21
2.64
